test system: MS2 coat protein; assay: apparent KD of MS2 coat protein; designed switch direction (-1 OFF switch, 1 ON switch): 1; higher = weaker reporter binding; conditions: input ligand: microRNA oligo, concentration not stated
VALUE TYPE: apparent KD of MS2 coat protein (nM)
Give the quantity in nM, number only.

UAAAUACAUGAGGAUCACCCAUGUCAAAAGACAUGAGGAUAUGUACAGUCUUCGGUCUGUACAGAAGGCAUGAAUA [salish99_ss1_r3_097] (Eterna round: R96, puzzle: Same State 1)    370
UUAAUGAAGUAAGGAUAUACAUGAGGAUCACUCGUAGAAGGUACUAUACAUGAGGAUCACCCAUGUUCCGGUCCGUAGACUGGA [JL SSNG1 1.02] (Eterna round: R96, puzzle: Same State NG 1)    236
CUUUUUAGUGCAGGAUAUGAUCAACAUGAGGAUCACCCAUGUGGCGUUGUGAGUAGGGAGAGUGAUCAGAAGGGCGUCUCCGCG [SS-NG2-LRO11] (Eterna round: R96, puzzle: Same State NG 2)    36.1
GUGGUCAGACAUGAGGAUCACCCAUGUGGAAUAAAUAAGGUCAAGGAUAUUGAAUAUAGGAUAUACAAGAAGGUGAGGUUGGUG (Eterna round: R96, puzzle: Same State NG 3)    94.9
AGUCCAGCCAGAGCUGGACAAAAGCAUGUACAUGAGGAUCACCCAUGUUCAUGUACAAGCUUUUUGCAAGUCAAAAU [Mat - hsa-mir-208a - Mod of JL - 83] (Eterna round: R96, puzzle: Sensor for hsa-mir-208a)    16

Query string: Could you share what apparent KD of MS2 coat protein was measured for AGAUAUCCACGACAUGAGGAUCACCCAUGUUGCUACGACAUGGAGGAUAUUCACGAUACACCUGUGAAGAAGGCUAAGGAUAUU [Eternabot solution 16] (Eterna round: R96, puzzle: Same State NG 3) , tested on MS2 coat protein?
Result string: 508

Query string: Could you share what apparent KD of MS2 coat protein was measured for AUUGCUAUCACAGGAUAUCAUGCGAAAAUCGCGUGAGAAGGGUGGACUCUGUCAUUCACGGAGGACAUGAGGAUCACCCAUGUC [SS NG10LRO16] (Eterna round: R96, puzzle: Same State NG 1) , tested on MS2 coat protein?
Result string: 18.9

Query string: Could you share what apparent KD of MS2 coat protein was measured for GUAUCUACAGGUUGCGAUGCUCGUCUGAUACAUGAGGAUCACCCAUGUUAUAGCCCUGUGCUUGCGCAGGGCUGAUU [Sensor for hsa-mir-208a ( MOD of Tearor v.2 )] (Eterna round: R96, puzzle: Sensor for hsa-mir-208a) , tested on MS2 coat protein?
Result string: 26.7

Query string: Could you share what apparent KD of MS2 coat protein was measured for AGCUAGUACCGAGGAUAUACGUACAUGAGGAUCACCCAUGUAUACAUGGUUUAAUGAGACUACAUGUAGAAGGCGGUACUAGCA [JL SSNG2 1.25] (Eterna round: R96, puzzle: Same State NG 2) , tested on MS2 coat protein?
Result string: 532
